# credit: ChEMBL document CHEMBL1134943

compounds and their reported pEC50
Target Or System: Retinoic acid receptor beta (Homo sapiens)
Sequence (P10826 whole entry): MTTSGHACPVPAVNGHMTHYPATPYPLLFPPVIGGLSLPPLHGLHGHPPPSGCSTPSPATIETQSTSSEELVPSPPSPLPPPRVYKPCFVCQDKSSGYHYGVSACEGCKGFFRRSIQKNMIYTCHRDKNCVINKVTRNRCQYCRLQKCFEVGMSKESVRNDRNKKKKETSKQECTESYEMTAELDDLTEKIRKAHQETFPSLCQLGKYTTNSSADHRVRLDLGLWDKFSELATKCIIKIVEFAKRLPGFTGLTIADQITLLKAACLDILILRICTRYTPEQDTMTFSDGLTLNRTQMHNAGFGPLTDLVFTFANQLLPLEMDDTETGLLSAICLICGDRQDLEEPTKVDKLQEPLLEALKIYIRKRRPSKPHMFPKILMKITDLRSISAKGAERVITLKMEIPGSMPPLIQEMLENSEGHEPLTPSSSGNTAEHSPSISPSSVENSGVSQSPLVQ
Procedure Text: Effective concentration for retinoic acid receptor RAR beta transcriptional activation
pEC50: −log10 of the molar value.

| Given Smiles | pEC50 |
| --- | --- |
| CC1(C)CCC(C)(C)c2cc(C(=O)Nc3cc(F)c(C(=O)O)c(F)c3)ccc21 | < 6.00 |
| CC1(C)CCC(C)(C)c2cc(C(=O)Nc3cc(F)c(C(=O)O)c(F)c3)c(O)cc21 | < 6.00 |
| CC1(C)CCC(C)(C)c2cc(C(=O)Nc3ccc(C(=O)O)c(F)c3)ccc21 | 7.35 |
